Test system: ES1 (Ewing's Sarcoma)
Assay Info: combination Emax (second highest fraction inhibited in the dose matrix, 72 h); higher = more inhibition; extreme values may be limits of the assay
Observable: combination Emax
Respond with the number and no other words.

Compound	combination Emax
Cc1cc2ncnn2cc1Nc1ncc2c(n1)n(C1CCOCC1)c(=O)n2C [AZD7648] + C[C@@H]1COCCN1C2=NC(=NC(=C2)C3(CC3)[S@](=N)(=O)C)C4=C5C=CNC5=NC=C4 [AZD6738] (first compound max 10 µM, 7x7, partner max 10 µM)	0.913

In the following, a different compound is considered.
Ask: So what's the measured combination Emax for this one? CN(CCO)CC[C@H](CSc1ccccc1)Nc1ccc(S(=O)(=O)NC(=O)c2ccc(N3CCC([C@@H](O)c4ccccc4-c4ccc(Cl)cc4)CC3)cc2)cc1S(=O)(=O)C(F)(F)F [AZD4320] + CCN(CCO)CCCOc1ccc2c(Nc3cc(CC(=O)Nc4cccc(F)c4)[nH]n3)ncnc2c1 [AZD2811] (first compound max 1 µM, 7x7, partner max 1 µM)
Result: 0.613

---

Tested on: BL-41 (Burkitt's Lymphoma)
Assay Info: combination Emax (second highest fraction inhibited in the dose matrix, 72 h); higher = more inhibition; extreme values may be limits of the assay
As shown below, each of these compounds has a reported combination Emax value.
Respond with the number and no other words.

Compound	combination Emax
Cc1cc2ncnn2cc1Nc1ncc2c(n1)n(C1CCOCC1)c(=O)n2C [AZD7648] + CN(C)CCCOc1ccc(-c2ccc3ncc4c(c3c2)n(C2CCOCC2)c(=O)n4C)cn1 [AZD0156] (first compound max 10 µM, 7x7, partner max 1 µM)	0.269
COc1nnc2ccc(N3CCC(c4ccc(OCCN5CCN(C)C(=O)[C@H]5C)cc4)CC3)nn12 [AZD5153] + Cn1cnc2c(F)c(Nc3ccc(Br)cc3Cl)c(C(=O)NOCCO)cc21 [Selumetinib] (first compound max 1 µM, 7x7, partner max 10 µM)	0.863
O=C(c1cc(Cc2n[nH]c(=O)c3ccccc23)ccc1F)N1CCN(C(=O)C2CC2)CC1 [Olaparib] + CN(CC[C@H](CSC1=CC=CC=C1)NC2=C(C=C(C=C2)S(=O)(=O)NC(=O)C3=CC=C(C=C3)N4CCC(CC4)[C@H](C5=CC=CC=C5C6=CC=C(C=C6)Cl)O)S(=O)(=O)C(F)(F)F)CCO [AZD4320] (first compound max 10 µM, 7x7, partner max 1 µM)	0.417

In the following, a different compound is considered.
Ask: Hello, I am looking for reported combination Emax with BL-41 (Burkitt's Lymphoma) for CS(=O)(=O)CCNCc1ccc(-c2ccc3ncnc(Nc4ccc(OCc5cccc(F)c5)c(Cl)c4)c3c2)o1 [Lapatinib] + C[C@@H](Oc1cc(-c2cnn(C3CCNCC3)c2)cnc1N)c1c(Cl)ccc(F)c1Cl [Crizotinib] (first compound max 10 µM, 7x7, partner max 10 µM) . Could you help?
Result: 0.96

---

System: NCI-H2818 (Mesothelioma);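 also: after 72 h of two-drug dosing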
Assay Info: Bliss excess, mean over the matrix (fraction); higher = more synergy
As shown below, each of these compounds has a reported Bliss excess value.
Respond with the number and no other words.

Compound	Test Target	Reported Measurement
C=CCn1c(=O)c2cnc(Nc3ccc(N4CCN(C)CC4)cc3)nc2n1-c1cccc(C(C)(C)O)n1 [AZD1775] + Nc1ccn([C@@H]2O[C@H](CO)[C@@H](O)C2(F)F)c(=O)n1 [Gemcitabine] (first compound max 1 µM, partner max 0.3 µM)	NCI-H2818 (Mesothelioma)	-0.0333
COc1nnc2ccc(N3CCC(c4ccc(OCCN5CCN(C)C(=O)[C@H]5C)cc4)CC3)nn12 [AZD5153] + C=CCn1c(=O)c2cnc(Nc3ccc(N4CCN(C)CC4)cc3)nc2n1-c1cccc(C(C)(C)O)n1 [AZD1775] (first compound max 1 µM, partner max 1 µM)	NCI-H2818 (Mesothelioma)	0.0033

Ask: So what's the measured Bliss excess for this one? N#Cc1cnc(Nc2cc(NC[C@H]3CNCCO3)c(C(F)(F)F)cn2)cn1 [SRA737] + CCc1c2c(nc3ccc(O)cc13)-c1cc3c(c(=O)n1C2)COC(=O)[C@]3(O)CC [SN-38] (first compound max 10 µM, 7x7, partner max 0.3 µM)
Result: -0.0605

Ask: Next compound: Cn1cnc2c(F)c(Nc3ccc(Br)cc3Cl)c(C(=O)NOCCO)cc21 [Selumetinib] + CCN(CCO)CCCOc1ccc2c(Nc3cc(CC(=O)Nc4cccc(F)c4)[nH]n3)ncnc2c1 [AZD2811] (first compound max 10 µM, 7x7, partner max 1 µM)
Result: -0.0106

Ask: Next compound: CCN(CCO)CCCOc1ccc2c(Nc3cc(CC(=O)Nc4cccc(F)c4)[nH]n3)ncnc2c1 [AZD2811] + O=C(c1cc(Cc2n[nH]c(=O)c3ccccc23)ccc1F)N1CCN(C(=O)C2CC2)CC1 [Olaparib] (first compound max 1 µM, 7x7, partner max 10 µM)
Result: -0.0415

Ask: Next compound: CC1(C)CCC(CN2CCN(c3ccc(C(=O)NS(=O)(=O)c4ccc(NCC5CCOCC5)c([N+](=O)[O-])c4)c(Oc4cnc5[nH]ccc5c4)c3)CC2)=C(c2ccc(Cl)cc2)C1 [Venetoclax] + C1CN(CCC1(C(=O)N[C@@H](CCO)C2=CC=C(C=C2)Cl)N)C3=NC=NC4=C3C=CN4 [Capivasertib] (first compound max 1 µM, 7x7, partner max 3 µM)
Result: -0.0628

Ask: Next compound: C=CCn1c(=O)c2cnc(Nc3ccc(N4CCN(C)CC4)cc3)nc2n1-c1cccc(C(C)(C)O)n1 [AZD1775] + CCc1c2c(nc3ccc(O)cc13)-c1cc3c(c(=O)n1C2)COC(=O)[C@]3(O)CC [SN-38] (first compound max 1 µM, partner max 0.3 µM)
Result: -0.063

Ask: Next compound: Cc1c2c(nn1C)CSCc1cc(n(C)n1)CSc1cc(c3ccccc3c1)OCCCc1c(C(=O)O)n(C)c3c-2c(Cl)ccc13 [AZD5991] + Cc1cc2ncnn2cc1Nc1ncc2c(n1)n(C1CCOCC1)c(=O)n2C [AZD7648] (first compound max 1 µM, 7x7, partner max 10 µM)
Result: -0.0757

Ask: Next compound: CS(=O)(=O)CCNCc1ccc(-c2ccc3ncnc(Nc4ccc(OCc5cccc(F)c5)c(Cl)c4)c3c2)o1 [Lapatinib] + Cn1cnc2c(F)c(Nc3ccc(Br)cc3Cl)c(C(=O)NOCCO)cc21 [Selumetinib] (first compound max 10 µM, 7x7, partner max 10 µM)
Result: -0.0295

Ask: Next compound: C=CCn1c(=O)c2cnc(Nc3ccc(N4CCN(C)CC4)cc3)nc2n1-c1cccc(C(C)(C)O)n1 [AZD1775] + C1CN(CCC1(C(=O)N[C@@H](CCO)C2=CC=C(C=C2)Cl)N)C3=NC=NC4=C3C=CN4 [Capivasertib] (first compound max 3 µM, partner max 3 µM)
Result: -0.0493
